System: HPV16 pseudoviruses
assay_remarks: microbe, parasite or virus in culture
Format: cell-based
experimental_parameters: Human papillomavirus 16, HEK-293T, 48 h, read-out: Infectivity (SEAP Activity), 3 μM HTS standard concentration, 293T cells, 48 hrs
Binary classification by activity at 3 µM, with 50% as an inclusive lower bound for 1; all other cases are -1.

Below are worked cases with known answers.
compound	category_label
CN(C)C=C=C(O)c1ccccc1C(=O)c1ccc(Cl)cc1	1
CCOc1ccc(C(=O)Nc2ccc3oc(-c4ccccc4F)nc3c2)cc1Cl	-1
O=c1oc2c3c4c(cc2cc1CCO)CCCN4CCC3	1
O=C(N(c1cccc(C(F)(F)F)c1)C1C=CS(=O)(=O)C1)C(F)(F)F (stereo not drawn)	-1
CC(c1ccccc1)c1nnc(NC(=O)Nc2ccc(Cl)cc2)s1 (stereo not drawn)	-1
CN1C(=O)C(c2c[nH]c3ccccc23)(c2c[nH]c3ccccc23)c2ccccc21	-1

Qu. Evaluate COc1ccc(N(CC(=O)Nc2ccc(C(C)C)cc2)S(=O)(=O)c2ccccc2)cc1Cl : activity at 3 µM at minimum 50%?
Ans. -1

Qu. Record: O=C(Nc1ccc(Cl)c(Cl)c1)Nc1ccccc1C(=O)O
Ans. -1

###

assay_remarks: in vitro
experimental_parameters: human, Viability (CelTiter Glow)
measured_attribute: viability at 52 h, 3 μM
Provide the measurement as a number trailed by its unit.

Here are 4 molecules together with their reported answers.
smi	result
CCc1ccccc1N(CC(=O)OC)S(C)(=O)=O	114%
Cc1ccccc1C(=O)Nc1cccc(NC(=O)c2ccc(-c3ccc(Br)cc3)o2)c1	104%
N#CCCOCc1cccc2ccccc12	110%
ON=Cc1ccc(Cl)s1	103%

--- query ---
Qu. Form field: reported viability at 52 h, 3 μM of Cc1cc(O)n2c(nc3ccccc32)c1C(=O)O
Ans. 101%

###

assay_remarks: Primary HTS: cell viability (CellTiter Glo) in parallel on the same wells
experimental_parameters: human
measured_attribute: viability at 52 h, 3 μM (%)
I only need the number, in %, no unit after it.

Qu. Form field: reported viability at 52 h, 3 μM of Cc1cc(C=C2C(=O)NC(=S)N(c3ccccc3F)C2=O)c(C)n1C
Ans. 109

###

assay_remarks: in vitro
experimental_parameters: human, Viability (CelTiter Glow)
Structures can show the parent of a compound that is named as a salt.
measured_attribute: viability at 52 h, 3 μM (%)
I only need the number, in %, no unit after it.

molecule	viability at 52 h, 3 μM, %
O=C1C(=Cc2ccccc2)CCCC1CN1CCOCC1 (stereo not drawn) [NRB 01540, hydrochloride]	101
CN1C(=O)C(c2c[nH]c3ccccc23)(c2c[nH]c3ccccc23)c2ccccc21	105
Cc1ccccc1C(=O)N1CC(C)CC(C)C1 (stereo not drawn)	108

--- query ---
Qu. Form field: reported viability at 52 h, 3 μM of O=C1NCCCC1c1n[nH]c(=S)n1Cc1ccccc1 (stereo not drawn)
Ans. 109

###

assay_remarks: in vitro
experimental_parameters: human, Viability (CelTiter Glow)
# Lookup of reported viability at 52 h, 3 μM keyed by entry
I only need the number, in %, no unit after it.

compound	viability at 52 h, 3 μM (%)
Cc1cc(Cl)ccc1OCC(=O)Nc1ccc(Br)c(NC(=O)c2ccccc2)c1	94.6
CC(=O)SCCC(=O)N1CCn2c3c(c4cc(C)ccc42)CCCC31 (stereo not drawn)	102
CCOC(=O)CCc1c(C)nc2c(C)c(-c3ccccc3)nn2c1O	93.4
CC(=O)Nc1ccccc1NC(=O)c1ccccc1I	106
COC(=O)C1=C(C)NC2=C(C(=O)c3ccccc32)C1c1ccc(-c2ccccc2C(=O)O)o1 (stereo not drawn)	110
O=C(NC(=S)Nc1ccc([N+](=O)[O-])cc1O)C12CC3CC(CC(C3)C1)C2	67
CC(=O)Oc1ccc(OC(C)=O)c2c1C1C=CC2CC1	108
NNC(=O)c1cc(COc2cc(Cl)cc(Cl)c2)on1	90.4

Qu. Form field: reported viability at 52 h, 3 μM of CS(=O)(=O)N(CC(=O)Nc1cccc(Br)c1)c1ccc(Cl)cc1
Ans. 101

Qu. Record: COc1ccc(N(CC(=O)Nc2ccc(C(C)C)cc2)S(=O)(=O)c2ccccc2)cc1Cl
Ans. 113

Qu. Record: CC1CCc2c(sc(NC(=O)c3ccccc3)c2C(N)=O)C1 (stereo not drawn)
Ans. 136

Qu. Record: O=C1NC(=S)SC1=Cc1cc(Br)ccc1OCc1ccccc1Cl
Ans. 95.4

Qu. Record: Cc1cc(C(c2ccc(F)cc2)c2cc(C)c(NC(=O)c3ccccc3)c(C)c2)cc(C)c1NC(=O)c1ccccc1
Ans. 110

Qu. Record: O=C1NC(=S)SC1=Cc1cc(Cl)c(OCc2ccccc2)c(Cl)c1
Ans. 106

Qu. Record: O=C(NCc1c(Cl)cccc1Oc1ccccc1)Nc1ccc(F)cc1
Ans. 85.3

Qu. Record: Cc1ccc(N2C(=O)C(Cl)=C(Nc3ccc(C)c(C)c3)C2=O)c(C)c1
Ans. 93.7

Qu. Record: CC(C)(C)NC(=O)C=Cc1cc([N+](=O)[O-])ccc1Sc1ccc(C(F)(F)F)cn1
Ans. 81.2

Qu. Record: CCN(C(=O)c1ccccc1Cl)c1ccccc1 [Compound 5272305, 2-chloro-N-ethyl-N-phenylbenzamide]
Ans. 104

###

Tested on: HPV16 pseudoviruses
assay_remarks: microbe, parasite or virus in culture
Type: cell-based
experimental_parameters: Human papillomavirus 16, HEK-293T, 48 h, read-out: Primary HTS SEAP vs Viability, Table 2, second pair of columns (c4)
# Lookup of reported activity at 3 µM keyed by entry
Provide the measurement as a number trailed by its unit.

compound	target_entity	measured_attribute	result
CCN1C(=O)c2cccc3c(NC(=O)c4ccc(S(=O)(=O)N(C)C)cc4)ccc1c23 [Compound 6]	HPV16 pseudoviruses	activity at 3 µM	29.3%
Cc1ccc(C2Nc3ccccc3NC3=C2C(=O)CC(c2ccccc2)C3)s1 (stereo not shown) [Compound 22]	HPV16 pseudoviruses	activity at 3 µM	43%
Cc1cc(C(c2ccc(F)cc2)c2cc(C)c(NC(=O)c3ccccc3)c(C)c2)cc(C)c1NC(=O)c1ccccc1 [Compound 14]	HPV16 pseudoviruses	activity at 3 µM	36.6%

Qu. Form field: reported activity at 3 µM of NNC(=O)c1cc(COc2cc(Cl)cc(Cl)c2)on1 [Compound 4]
Ans. 26.9%

###

assay_remarks: in vitro
experimental_parameters: human, Viability (CelTiter Glow)
measured_attribute: viability at 52 h, 3 μM
Provide the measurement as a number trailed by its unit.

Here are 4 compounds together with their reported answers.
compound	viability at 52 h, 3 μM
Cc1ccc(-c2cc(N)n(Cc3ccc(Cl)cc3)n2)cc1 [Compound 6077076]	74.4%
COc1ccc(C(O)(CNCc2ccccc2)c2ccc(Br)cc2)cc1 (centres unmarked) [Compound 9]	105%
O=S1(=O)C=CC(Nc2cccc(C(F)(F)F)c2)C1 (centres unmarked) [Compound 16]	92.9%
COc1ccc(Cl)cc1C(=O)Nc1ccc(NC(=O)c2ccc(C(C)(C)C)cc2)cc1 [Compound 5795860]	111%

Qu. Form field: reported viability at 52 h, 3 μM of Cc1ccc(OCc2nnc(NC(=O)Nc3ccc(Cl)c(Cl)c3)s2)cc1 [Compound 6070527]
Ans. 105%

Qu. Record: CCNS(=O)(=O)c1ccc(-c2oc3cc(S(=O)(=O)NCC)ccc3c2Cl)cc1 [NRB 00942]
Ans. 99.7%

Qu. Record: Cc1cc(OCC(=O)Nc2ccc(N3CCOCC3)c(Cl)c2)cc(C)c1Cl [Compound 6013775]
Ans. 105%

Qu. Record: FC(F)(F)c1cnc2c(c1)nc(S)n2-c1ccc(Cl)cc1 [Compound 20]
Ans. 99.1%

Qu. Record: O=[N+]([O-])c1cc(-n2ncnc2-c2ccc3c(c2)OCO3)ccc1F [Compound 6033199]
Ans. 106%

Qu. Record: CC(O)c1cccc(NC(=O)c2cc3n(n2)C(C(F)(F)F)CC(c2ccc(F)cc2)N3)c1 (centres unmarked) [Compound 19]
Ans. 107%

Qu. Record: CCCn1c2ccccc2c2nnc(SC(CC)C(=O)Nc3ccc(Cl)cn3)nc21 (centres unmarked) [Compound 13]
Ans. 102%

Qu. Record: Cc1ccc(C2Nc3ccccc3NC3=C2C(=O)CC(c2ccccc2)C3)s1 (centres unmarked) [Compound 22]
Ans. 105%

Qu. Record: COc1ccc(CCNc2cc(N3CCN(C(=O)c4ccc(Cl)cc4)CC3)ccc2[N+](=O)[O-])cc1OC [Compound 6144357]
Ans. 84.6%

Qu. Record: COc1ccc(S(=O)(=O)Nc2cc(Cl)ccc2C)cc1 [Compound 6118535]
Ans. 73.9%

###

assay_remarks: in vitro
experimental_parameters: human, Viability (CelTiter Glow)
# Lookup of reported viability at 52 h, 3 μM keyed by entry
I only need the number, in %, no unit after it.

Here are 5 compounds together with their reported answers.
compound	measurement_unit	viability at 52 h, 3 μM
Cc1cccc(C=C2C(=O)NN(c3ccccc3)C2=O)c1	%	117
O=C(Nc1ccccc1C(=O)N[C@@H](Cc1ccccc1)C(=O)O)c1ccccc1 [Compound 6058136, N-[2-(benzoylamino)benzoyl]phenylalanine]	%	109
CSc1nsc(SC)c1NC(=O)OCC1([N+](=O)[O-])COC(C)(C)OC1	%	108
COC(=O)C1=C(C)NC2=C(C(=O)c3ccccc32)C1c1ccc(OCc2ccc([N+](=O)[O-])cc2)c(Cl)c1 (stereo not drawn)	%	123
O=C(CSc1nc2cc([N+](=O)[O-])ccc2[nH]1)Nc1ccc2c(c1)OCO2	%	103

Qu. Form field: reported viability at 52 h, 3 μM of CCOc1ccc(C(=O)Nc2ccc3oc(-c4ccccc4F)nc3c2)cc1Cl
Ans. 96.3

Source listed as patent US9949980B2.
